Answer each item with its documented MIC50.
- Test system: Cryptococcus neoformans
- assayMethodText: Antifungal activity against Cryptococcus neoformans after 72 hrs by broth microdilution method
- Format: functional

CC(C)(C)c1ccc([C@H](CF)NCc2cccc3ccccc23)cc1 > 32 µg/mL
C[C@H](c1cccc2ccccc12)N(C)Cc1cccc(C(F)(F)F)c1 4 µg/mL
C[C@H](c1cccc2ccccc12)N(C)Cc1ccc([N+](=O)[O-])cc1 2 µg/mL
C[C@H](c1cccc2ccccc12)N(C)Cc1ccccc1-c1ccccc1 > 32 µg/mL
CC(C)(C)c1ccc([C@@H](CF)NCc2cccc3ccccc23)cc1 > 32 µg/mL

I'm hoping you can list MIC50 for every molecule here, please.
1. Cc1cc(C(C)(C)C)cc(C)c1CN(C)[C@H](C)c1cccc2ccccc12
2. C[C@H](c1ccc(C(C)(C)C)cc1)N(C)Cc1cccc2ccccc12
3. C[C@H](c1cccc2ccccc12)N(C)Cc1cccnc1
4. C[C@H](c1cccc2ccccc12)N(C)Cc1ccncc1
5. C[C@H](c1cccc2ccccc12)N(C)Cc1cc(C(F)(F)F)cc(C(F)(F)F)c1
6. C[C@H](c1cccc2ccccc12)N(C)Cc1cccc(Br)c1

["1 µg/mL", "> 32 µg/mL", "> 32 µg/mL", "16 µg/mL", "> 32 µg/mL", "4 µg/mL"]

----------
Answer each item with its documented MIC50.
- System: Trichophyton mentagrophytes
- assayMethodText: Antifungal activity against Trichophyton mentagrophytes after 7 days by broth microdilution method
- Type: functional
- recordedConditions: 168 h
Give bare numbers, in µg/mL.

C[C@H](c1cccc2ccccc12)N(C)Cc1ccc(C(F)(F)F)cc1 0.25
C[C@@H](c1ccc(C(C)(C)C)cc1)N(C)Cc1cccc2ccccc12 0.5

I'm hoping you can list MIC50 for every molecule here, please.
1. C[C@H](c1cccc2ccccc12)N(C)Cc1ccc(OCc2ccccc2)cc1
2. C[C@H](c1cccc2ccccc12)N(C)Cc1cccc(Br)c1
3. C[C@H](c1cccc2ccccc12)N(C)Cc1cccc(C(F)(F)F)c1
4. COc1ccc(CN(C)[C@H](C)c2cccc3ccccc23)cc1

[0.125, 2, 4, 1]

----------
Answer each item with its documented log10(MIC50).
- Test system: Cryptococcus neoformans
- assayMethodText: Antifungal activity against Cryptococcus neoformans after 72 hrs by broth microdilution method
- Format: functional
# log10 transformed; quantity=MIC50; unit=µg/mL

Worked examples, 3 compounds total:
compound	log10(MIC50)
C[C@H](c1cccc2ccccc12)N(C)Cc1ccc([Si](C)(C)C)cc1	-0.30
C[C@H](c1cccc2ccccc12)N(C)Cc1ccc(OCc2ccccc2)cc1	-0.30
C[C@@H](c1cccc2ccccc12)N(C)Cc1ccc(C(C)(C)C)cc1	0.00

I'm hoping you can list log10(MIC50) for every compound here, please.
1. COc1ccc(CN(C)[C@H](C)c2cccc3ccccc23)cc1
2. C[C@H](c1cccc2ccccc12)N(C)Cc1cc(C(C)(C)C)cc(C(C)(C)C)c1
3. C[C@@H]1[C@H](O)[C@@H](C)/C=C/C=C/C=C/C=C/C=C/C=C/C=C/[C@H](O[C@@H]2O[C@H](C)[C@@H](O)[C@H](N)[C@@H]2O)C[C@@H]2O[C@](O)(C[C@@H](O)C[C@@H](O)[C@H](O)CC[C@@H](O)C[C@@H](O)CC(=O)O[C@H]1C)C[C@H](O)[C@H]2C(=O)O [AMPHOTERICIN B]

[0.30, 1.51, -0.60]

Origin of values: ChEMBL document CHEMBL2424576
